experiment: Pharmacokinetics study of KDG-0271 in male CD1 mice (Example 4); assay type: in vivo; conditions: mouse, plasma, 30 mg/kg IP
Parameter measured: Tmax (min)

• Cc1n[nH]c2c1C(c1cc(C#CC3CN(C(=O)OC(C)(C)C)C3)cc(CO)c1)(C(C)C)C(C#N)=C(N)O2 (stereo not shown) = 15

====

test: Pharmacokinetics study of KDG-0320-0A in male CD1 mice (Example 1); format: in vivo; conditions: mouse, plasma, 50 mg/kg PO
Structures can show the parent of a compound that is named as a salt.
Parameter measured: half-life (h)

• Cc1n[nH]c2c1C(c1cc(C#C[C@H]3CC[C@H](NC(=O)OC(C)(C)C)CC3)cc(CO)c1)(C(C)C)C(C#N)=C(N)O2 (stereo partly shown) [KDG-0320, hydrochloride] = 1.28
